assay name: Clearance in monkey after iv administration
Type: ADME, organism-based
details: macaca, in vivo
Attribute: clearance

Would you please look over these solved cases?
compound: CC(=O)CC(c1ccccc1)c1c(O)c2ccccc2oc1=O (centres undefined)
clearance: 0.13 mL/min/kg
--
compound: CN1CCC[C@H]1c1cccnc1
clearance: 14 mL/min/kg
--
compound: COCCOC(=O)C1=C(C)NC(C)=C(C(=O)OC(C)C)C1c1cccc([N+](=O)[O-])c1 (centres undefined)
clearance: 33 mL/min/kg

Could you now look at the following compound, please?
# input Specify reported clearance for the compound shown: `CO/N=C(\C(=O)N[C@@H]1C(=O)N2C(C(=O)O)=C(CSc3nc(=O)c(=O)[nH]n3C)CS[C@H]12)c1csc(N)n1`
# output 0.45 mL/min/kg
